Cited source for all entries: patent US4281121A

# System: Tilletia caries
# test: Treatment of oat seeds infested with Tilletia caries (spore germination)
# Type: in vivo
# conditions: 20 g active agent per 100 kg
Collected % activity values appear next to each entry.
result_type: % activity (%)

compound	endpoint_unit	recorded_number
CCCS(=O)(=O)c1nnc(C(=O)NCC)s1	%	99.8
CCCCNC(=O)c1nnc([S+]([O-])CCC)s1 (stereo not shown)	%	100
CC(C)[S+]([O-])c1nnc(C(=O)NCC2CCCCC2)s1 (stereo not shown)	%	99
CC(C)CS(=O)(=O)c1nnc(C#N)s1	%	93
C=CCNC(=O)c1nnc([S+]([O-])CCC)s1 (stereo not shown)	%	100
CCCCNC(=O)c1nnc(S(C)(=O)=O)s1	%	100
CCCCNC(=O)c1nnc(S(=O)(=O)CC)s1	%	100

====

# Tested on: Pythium ultimum
# test: Threshold concentration test for use of the compounds against Pythium ultimum (infested soil, garden peas)
# Assay type: in vivo
# Set-up: key: 4: white roots without fungous necrosis; 3: white roots, minor fungous necrosis; 2: brown roots, already more pronounced fungous necrosis; 1: heavy fungous necrosis, roots rotted
# conditions: 20 mg/l soil; 3 weeks
Collected root evaluation (1-4) values appear next to each entry.
result_type: root evaluation (1-4)

molecule	recorded_number
CC[S+]([O-])c1nnc(C(N)=O)s1 (stereo not drawn)	2
CCS(=O)(=O)c1nnc(C(N)=O)s1	2
CCNC(=O)c1nnc(S(=O)(=O)CC)s1	4
C[S+]([O-])c1nnc(C(=O)NC2CC2)s1 (stereo not drawn)	1
CC(C)NC(=O)c1nnc([S+](C)[O-])s1 (stereo not drawn)	4
CS(=O)(=O)c1nnc(C(=O)NC2CC2)s1	1
C=CCNC(=O)c1nnc(S(=O)(=O)CC)s1	1
CCCC[S+]([O-])c1nnc(C#N)s1 (stereo not drawn)	4
CCCS(=O)(=O)c1nnc(C(=O)NC)s1	4
C=CCNC(=O)c1nnc(S(=O)(=O)CCC)s1	3
S=C([S-])NCCNC(=S)[S-].[Mn+2] [reference compound]	1
CC(C)CS(=O)(=O)c1nnc(C(N)=O)s1	1
CCCCNC(=O)c1nnc([S+](C)[O-])s1 (stereo not drawn)	2
CC(C)[S+]([O-])c1nnc(C#N)s1 (stereo not drawn)	3
CCS(=O)(=O)c1nnc(C(=O)N2CCC2)s1	4
CC[S+]([O-])c1nnc(C#N)s1 (stereo not drawn)	4
CCNC(=O)c1nnc(S(C)(=O)=O)s1	4
CCCCNC(=O)c1nnc(S(=O)(=O)CC)s1	1
CCS(=O)(=O)c1nnc(C#N)s1	2
CCC[S+]([O-])c1nnc(C#N)s1 (stereo not drawn)	1
CCCNC(=O)c1nnc([S+](C)[O-])s1 (stereo not drawn)	4
CC(C)S(=O)(=O)c1nnc(C#N)s1	2
CCS(=O)(=O)c1nnc(C(=O)NC)s1	4
CCCS(=O)(=O)c1nnc(C(=O)NCC)s1	3
CCCNC(=O)c1nnc(S(C)(=O)=O)s1	4
C[S+]([O-])c1nnc(C(=O)N2CCC2)s1 (stereo not drawn)	2
CCNC(=O)c1nnc([S+](C)[O-])s1 (stereo not drawn)	2

====

# Test system: Pythium ultimum
# test: Threshold concentration test for use of the compounds against Pythium ultimum (infested soil, garden peas)
# Assay type: in vivo
# conditions: 80 mg/l soil; 20 grains per dish; 3 weeks at 20-24° C.
Collected number of sound peas values appear next to each entry.
result_type: number of sound peas

compound	result_type	recorded_number
CS(=O)(=O)c1nnc(C(=O)N2CCC2)s1	number of sound peas	20
CC(C)S(=O)(=O)c1nnc(C(N)=O)s1	number of sound peas	19
CCCNC(=O)c1nnc([S+](C)[O-])s1 (stereo not shown)	number of sound peas	15
CCCC[S+]([O-])c1nnc(C#N)s1 (stereo not shown)	number of sound peas	20
CC(C)CS(=O)(=O)c1nnc(C(N)=O)s1	number of sound peas	18
C=CCNC(=O)c1nnc([S+]([O-])CCC)s1 (stereo not shown)	number of sound peas	19
CN(C)C(=O)c1nnc(S(C)(=O)=O)s1	number of sound peas	18
CS(=O)(=O)c1nnc(C(=O)NC2CC2)s1	number of sound peas	20
CCC[S+]([O-])c1nnc(C(=O)N(C)C)s1 (stereo not shown)	number of sound peas	19
C=CCNC(=O)c1nnc(S(=O)(=O)CC)s1	number of sound peas	16
C[S+]([O-])c1nnc(C(=O)NC2CC2)s1 (stereo not shown)	number of sound peas	20
CCS(=O)(=O)c1nnc(C(=O)NCCOC)s1	number of sound peas	16
CCS(=O)(=O)c1nnc(C#N)s1	number of sound peas	20
CCCCNC(=O)c1nnc(S(C)(=O)=O)s1	number of sound peas	16
CC(C)NC(=O)c1nnc([S+](C)[O-])s1 (stereo not shown)	number of sound peas	20
CCNC(=O)c1nnc([S+](C)[O-])s1 (stereo not shown)	number of sound peas	19
CCCCS(=O)(=O)c1nnc(C(N)=O)s1	number of sound peas	18
CCCS(=O)(=O)c1nnc(C(=O)NC)s1	number of sound peas	15
CCCC[S+]([O-])c1nnc(C(N)=O)s1 (stereo not shown)	number of sound peas	19
CCS(=O)(=O)c1nnc(C(=O)NC(C)C)s1	number of sound peas	16
CCCS(=O)(=O)c1nnc(C(=O)N(C)C)s1	number of sound peas	19
CS(=O)(=O)c1nnc(C(N)=O)s1	number of sound peas	20
CCCCNC(=O)c1nnc([S+](C)[O-])s1 (stereo not shown)	number of sound peas	17
CCS(=O)(=O)c1nnc(C(N)=O)s1	number of sound peas	20
CS(=O)(=O)c1nnc(C#N)s1	number of sound peas	20
CCCS(=O)(=O)c1nnc(C(=O)NC(C)C)s1	number of sound peas	18
CCCNC(=O)c1nnc(S(C)(=O)=O)s1	number of sound peas	15
C[S+]([O-])c1nnc(C#N)s1 (stereo not shown)	number of sound peas	20

====

Collected % activity values appear next to each entry.
# Tested on: Tilletia caries
# test: Treatment of oat seeds infested with Tilletia caries (spore germination)
# Assay type: in vivo
# conditions: 20 g active agent per 100 kg

compound	target	% activity [%]
C[S+]([O-])c1nnc(C#N)s1 (stereo not shown)	Tilletia caries	100
CCCCCCNC(=O)c1nnc(S(=O)(=O)CCC)s1	Tilletia caries	100
CCC[S+]([O-])c1nnc(C(=O)NC(C)C)s1 (stereo not shown)	Tilletia caries	100
CCCNC(=O)c1nnc(S(C)(=O)=O)s1	Tilletia caries	100
C=CCNC(=O)c1nnc(S(C)(=O)=O)s1	Tilletia caries	100
CCS(=O)(=O)c1nnc(C(N)=O)s1	Tilletia caries	100
CCC(C)S(=O)(=O)c1nnc(C#N)s1 (stereo not shown)	Tilletia caries	91
CC(C)NC(=O)c1nnc([S+](C)[O-])s1 (stereo not shown)	Tilletia caries	100
CCCS(=O)(=O)c1nnc(C(=O)N(C)C)s1	Tilletia caries	100
CCCCN(C)C(=O)c1nnc(S(=O)(=O)CC)s1	Tilletia caries	100
CCS(=O)(=O)c1nnc(C(=O)NC2CCCCCCC2)s1	Tilletia caries	100
CC[S+]([O-])c1nnc(C(N)=O)s1 (stereo not shown)	Tilletia caries	100
CCCCCCCCNC(=O)c1nnc(S(=O)(=O)CC)s1	Tilletia caries	93
CCCS(=O)(=O)c1nnc(C(=O)NC)s1	Tilletia caries	99.5
CCS(=O)(=O)c1nnc(C(=O)NCCOC)s1	Tilletia caries	100
CCCCS(=O)(=O)c1nnc(C#N)s1	Tilletia caries	95
CCC[S+]([O-])c1nnc(C(=O)NC(C)CC)s1 (stereo not shown)	Tilletia caries	100
CC(C)S(=O)(=O)c1nnc(C(=O)NCC2CCCCC2)s1	Tilletia caries	92
CCCCCCNC(=O)c1nnc([S+]([O-])CCC)s1 (stereo not shown)	Tilletia caries	100
COCCNC(=O)c1nnc(S(C)(=O)=O)s1	Tilletia caries	93
CCCCNC(=O)c1nnc([S+](C)[O-])s1 (stereo not shown)	Tilletia caries	99.8
CCCNC(=O)c1nnc(S(=O)(=O)CCC)s1	Tilletia caries	99.7
CCCS(=O)(=O)c1nnc(C(=O)NC(C)C)s1	Tilletia caries	99.8
CCCNC(=O)c1nnc([S+]([O-])CCC)s1 (stereo not shown)	Tilletia caries	99.3
C=CCNC(=O)c1nnc(S(=O)(=O)CC)s1	Tilletia caries	100
C[S+]([O-])c1nnc(C(N)=O)s1 (stereo not shown)	Tilletia caries	98
CCS(=O)(=O)c1nnc(C(=O)NC2CC2)s1	Tilletia caries	100
CCS(=O)(=O)c1nnc(C(=O)NCCCOC)s1	Tilletia caries	100
CC(C)[S+]([O-])c1nnc(C#N)s1 (stereo not shown)	Tilletia caries	87
CCNC(=O)c1nnc(S(C)(=O)=O)s1	Tilletia caries	99.2
C=CCNC(=O)c1nnc([S+](C)[O-])s1 (stereo not shown)	Tilletia caries	100
CCCNC(=O)c1nnc(S(=O)(=O)CC)s1	Tilletia caries	100
C=CCNC(=O)c1nnc(S(=O)(=O)CCC)s1	Tilletia caries	99.7
CC[S+]([O-])c1nnc(C#N)s1 (stereo not shown)	Tilletia caries	100
C[S+]([O-])c1nnc(C(=O)N2CCC2)s1 (stereo not shown)	Tilletia caries	96
CCS(=O)(=O)c1nnc(C(=O)NC)s1	Tilletia caries	100
CCS(=O)(=O)c1nnc(C(=O)NC(C)C)s1	Tilletia caries	100
CS(=O)(=O)c1nnc(C(=O)NCC2CCCCC2)s1	Tilletia caries	100
CCS(=O)(=O)c1nnc(C(=O)N(C)C)s1	Tilletia caries	100
CS(=O)(=O)c1nnc(C(=O)N2CCC2)s1	Tilletia caries	99
